From: PubChem BioAssay (NCI)

# System: SNB-75 CNS
# method notes: NCI-60 one-dose screen, 48 h
# measurement setup: 10 µM unless noted
# Experimental: Growth inhibition of the SNB-75 human tumor cell line is measured as a screen for anti-cancer activity. Cells are grown in 96 well plates and exposed to the test compound for 48 hours. Compounds are tested at a single concentration, which is 10^-5 M for most compounds. The reported endpoint is percent growth (GI% or GIPRCNT), where numbers from 0 - 100% represent growth inhibition, and numbers from -100% - 0 represent cell death. For example, a value of 40 represents 60% growth inhibition. […]
Compounds without any hit were thinned out: in the full panel of roughly 83,000, 20% have a hit. Calls of active or inactive are those of the source. How the source made its calls: active means growth percent below 10; inactive means the rest.
// one of 1.0 for active, 0.0 for inactive, no free text

Some solved entries appear below for comparison.
>>> label_value("CCNCCNc1cc(-c2ccc(F)cc2)c(C#N)c2nc3ccccc3n12")
0.0
>>> label_value("O=C1NCC(=O)N(Cc2ccco2)[C@H]1Cc1ccccc1")
0.0
>>> label_value("COc1ccc(-c2cncnc2N)cc1OC")
0.0
>>> label_value("Nc1c(C(=O)c2ccccc2)nnc2ncnn12")
0.0
>>> label_value("O=C(NCOC(O)C(Cl)(Cl)Cl)NCOC(O)C(Cl)(Cl)Cl (stereo unspecified)")
0.0
>>> label_value("Nc1ccc(-c2cc3c(Nc4ccc(OCc5cccc(F)c5)c(Cl)c4)ncnc3s2)cc1")
0.0

Q: Recorded test outcome, item CCCCCCCCCCCCCCCCCC1=NCCN1C(=O)OCCO
Ans: 0.0

Q: Assay result, entry CSc1ncc(C)c(Nc2ccc(Cl)cc2)n1 — outcome?
Ans: 0.0
